Target: human ROR1 (Homo sapiens)
Construct: host or cells: HEK 293T cells, Tet-on system induced with doxycycline
Sequence (Q01973 30-937): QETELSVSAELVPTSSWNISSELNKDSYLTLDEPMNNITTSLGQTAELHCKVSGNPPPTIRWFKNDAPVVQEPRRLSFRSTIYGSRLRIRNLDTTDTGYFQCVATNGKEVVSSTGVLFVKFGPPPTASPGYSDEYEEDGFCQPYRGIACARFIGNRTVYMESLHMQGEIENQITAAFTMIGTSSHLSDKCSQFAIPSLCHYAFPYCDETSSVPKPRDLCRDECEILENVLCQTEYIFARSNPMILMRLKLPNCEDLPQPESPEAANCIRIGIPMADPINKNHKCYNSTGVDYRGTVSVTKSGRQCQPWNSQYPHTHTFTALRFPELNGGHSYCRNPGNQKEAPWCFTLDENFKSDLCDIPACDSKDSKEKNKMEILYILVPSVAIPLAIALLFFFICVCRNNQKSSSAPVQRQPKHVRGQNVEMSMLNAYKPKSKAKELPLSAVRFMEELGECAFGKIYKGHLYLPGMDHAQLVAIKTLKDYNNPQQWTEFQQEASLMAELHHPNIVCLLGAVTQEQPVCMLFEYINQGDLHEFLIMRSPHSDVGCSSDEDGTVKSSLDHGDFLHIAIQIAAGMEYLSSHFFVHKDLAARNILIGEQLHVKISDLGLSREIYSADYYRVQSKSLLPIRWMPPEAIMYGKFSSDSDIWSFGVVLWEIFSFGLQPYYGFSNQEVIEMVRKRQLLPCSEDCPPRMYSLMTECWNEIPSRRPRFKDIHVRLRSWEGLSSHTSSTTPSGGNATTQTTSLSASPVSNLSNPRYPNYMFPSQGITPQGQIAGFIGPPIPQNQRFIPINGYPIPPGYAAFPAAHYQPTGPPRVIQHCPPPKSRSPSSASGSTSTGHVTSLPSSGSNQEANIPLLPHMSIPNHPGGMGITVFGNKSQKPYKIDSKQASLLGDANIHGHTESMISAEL
Test: ROR1 high content cell-based binding assay
Conditions: read-out: ROR1 Binding 293T Human HC Cell Based Assay IC50
Positions of bridges follow the written chain, without caps; N, C: chain ends. Non-standard residues stand in square brackets, D forms with d. Residues, ends and D or L forms follow the SMILES beside them. ξ: configuration not given here. NMeF = CN[C@@H](Cc1ccccc1)C(=O)O; ξL = CC(C)CC(N)C(=O)O
measured endpoint: pIC50
One number for each entry, as −log10 of the molar value.

Solved cases below.
CC(C)CC1NC(=O)[C@H](Cc2ccc(O)cc2)NC(=O)[C@H](C(C)C)NC(=O)CSC[C@@H](C(=O)NCC(N)=O)NC(=O)[C@H](CC(C)C)NC(=O)[C@H](Cc2ccccc2)N(C)C(=O)[C@H](Cc2ccc(O)cc2)NC(=O)[C@H](Cc2c[nH]c3ccccc23)NC(=O)CNC(=O)[C@H](CO)NC(=O)[C@H](Cc2ccc(O)cc2)NC(=O)[C@H](C(C)C)NC1=O (stereo partly shown) [Example 1074] ({CH2CO}-VY[ξL]VYSGWY[NMeF]LCG-NH2; thioether N-12) = 6.91
CC(C)C[C@@H]1NC(=O)CNC(=O)[C@H](Cc2ccccc2)NC(=O)CSC[C@@H](C(=O)NCC(N)=O)NC(=O)[C@H](CC(C)C)NC(=O)[C@H](Cc2ccccc2)N(C)C(=O)[C@H](Cc2ccc(O)cc2)NC(=O)[C@H](Cc2c[nH]c3ccccc23)NC(=O)CNC(=O)[C@H](CO)NC(=O)[C@H](Cc2ccc(O)cc2)NC(=O)[C@H](C(C)C)NC1=O [Example 1068] ({CH2CO}-FGLVYSGWY[NMeF]LCG-NH2; thioether N-12) = 6.34
CC(C)C[C@@H]1NC(=O)[C@H](Cc2c[nH]cn2)NC(=O)[C@H](Cc2ccccc2)N(C)C(=O)CNC(=O)[C@H](Cc2ccc(O)cc2)NC(=O)[C@@H](Cc2ccccc2)NC(=O)CSC[C@@H](C(N)=O)NC(=O)[C@H](Cc2c[nH]c3ccccc23)NC(=O)[C@H](Cc2ccc(O)cc2)NC1=O [Example 1117] ({CH2CO}-[dF]YG[NMeF]HLYWC-NH2; thioether N-9) = 7.16
CC(C)C[C@@H]1NC(=O)[C@H](Cc2ccc(O)cc2)NC(=O)[C@H](C(C)C)NC(=O)[C@H](CC(C)C)NC(=O)[C@H](Cc2ccc(O)cc2)NC(=O)[C@H](Cc2ccccc2)NC(=O)CSC[C@@H](C(=O)NCC(N)=O)NC(=O)[C@H](CC(C)C)NC(=O)[C@H](Cc2ccccc2)N(C)C(=O)[C@H](Cc2ccc(O)cc2)NC(=O)[C@H](Cc2c[nH]c3ccccc23)NC(=O)CNC1=O [Example 1044] ({CH2CO}-FYLVYLGWY[NMeF]LCG-NH2; thioether N-12) = 7.42
CC(C)C[C@@H]1NC(=O)[C@H](Cc2ccccc2)N(C)C(=O)[C@H](Cc2ccc(O)cc2)NC(=O)[C@H](Cc2c[nH]c3ccccc23)NC(=O)CNC(=O)[C@H](CO)NC(=O)[C@H](Cc2ccc(O)cc2)NC(=O)[C@H](C(C)C)NC(=O)[C@H](CCCNC(=N)N)NC(=O)[C@H](Cc2ccc(O)cc2)NC(=O)[C@H](Cc2ccccc2)NC(=O)CSC[C@@H](C(=O)NCC(N)=O)NC1=O [Example 1046] ({CH2CO}-FYRVYSGWY[NMeF]LCG-NH2; thioether N-12) = 8.22
CC(C)C[C@@H]1NC(=O)[C@H](Cc2c[nH]c3ccccc23)NC(=O)[C@H](Cc2ccc(O)cc2)NC(=O)[C@H](Cc2c[nH]c3ccccc23)NC(=O)CNC(=O)[C@H](CO)NC(=O)[C@H](Cc2ccc(O)cc2)NC(=O)[C@H](C(C)C)NC(=O)[C@@H]2CCCN2C(=O)[C@H](Cc2ccc(O)cc2)NC(=O)[C@H](Cc2ccccc2)NC(=O)CSC[C@@H](C(N)=O)NC1=O [Example 1095] ({CH2CO}-FYPVYSGWYWLC-NH2; thioether N-12) = 7.96
CC(C)C[C@@H]1NC(=O)[C@H](Cc2c[nH]c3ccccc23)NC(=O)[C@H](Cc2ccccc2)NC(=O)[C@H](Cc2c[nH]c3ccccc23)NC(=O)CNC(=O)[C@H](CO)NC(=O)[C@H](Cc2ccc(O)cc2)NC(=O)[C@H](C(C)C)NC(=O)[C@@H]2CCCN2C(=O)[C@H](Cc2ccc(O)cc2)NC(=O)[C@H](Cc2ccccc2)NC(=O)CSC[C@@H](C(=O)NCC(N)=O)NC1=O [Example 1012] ({CH2CO}-FYPVYSGWFWLCG-NH2; thioether N-12) = 7.44
CC(C)C[C@@H]1NC(=O)[C@H](Cc2ccc(O)cc2)NC(=O)[C@H](Cc2ccccc2)NC(=O)CSC[C@@H](C(=O)NCC(N)=O)NC(=O)[C@H](CC(C)C)NC(=O)[C@H](Cc2ccccc2)N(C)C(=O)[C@H](Cc2ccc(O)cc2)NC(=O)[C@H](Cc2c[nH]c3ccccc23)NC(=O)CNC(=O)[C@H](CO)NC(=O)[C@H](C)NC(=O)[C@H](C(C)C)NC1=O [Example 1027] ({CH2CO}-FYLVASGWY[NMeF]LCG-NH2; thioether N-12) = 6.06
CC(C)C[C@@H]1NC(=O)[C@H](CCC(N)=O)NC(=O)[C@H](Cc2ccccc2)N(C)C(=O)CNC(=O)[C@H](Cc2ccc(O)cc2)NC(=O)[C@H](Cc2ccccc2)NC(=O)CSC[C@@H](C(N)=O)NC(=O)[C@H](Cc2c[nH]c3ccccc23)NC(=O)[C@H](Cc2ccc(O)cc2)NC1=O [Example 1110] ({CH2CO}-FYG[NMeF]QLYWC-NH2; thioether N-9) = 6.44

Qu. Form field: reported pIC50 of CSCC[C@@H]1NC(=O)[C@H](Cc2ccccc2)N(C)C(=O)CNC(=O)[C@H](Cc2ccc(O)cc2)NC(=O)[C@H](Cc2ccccc2)NC(=O)CSC[C@@H](C(N)=O)NC(=O)[C@H](Cc2c[nH]c3ccccc23)NC(=O)[C@H](Cc2ccc(O)cc2)NC(=O)[C@H](CC(C)C)NC1=O [Example 1109] ({CH2CO}-FYG[NMeF]MLYWC-NH2; thioether N-9)
Ans. 6.24
